# TARGET SYSTEM: DYRK2 (Homo sapiens, UniProt Q92630)
# Construct: purchased Carna Biosciences, Inc. 04-132
# Sequence (Q92630 whole entry): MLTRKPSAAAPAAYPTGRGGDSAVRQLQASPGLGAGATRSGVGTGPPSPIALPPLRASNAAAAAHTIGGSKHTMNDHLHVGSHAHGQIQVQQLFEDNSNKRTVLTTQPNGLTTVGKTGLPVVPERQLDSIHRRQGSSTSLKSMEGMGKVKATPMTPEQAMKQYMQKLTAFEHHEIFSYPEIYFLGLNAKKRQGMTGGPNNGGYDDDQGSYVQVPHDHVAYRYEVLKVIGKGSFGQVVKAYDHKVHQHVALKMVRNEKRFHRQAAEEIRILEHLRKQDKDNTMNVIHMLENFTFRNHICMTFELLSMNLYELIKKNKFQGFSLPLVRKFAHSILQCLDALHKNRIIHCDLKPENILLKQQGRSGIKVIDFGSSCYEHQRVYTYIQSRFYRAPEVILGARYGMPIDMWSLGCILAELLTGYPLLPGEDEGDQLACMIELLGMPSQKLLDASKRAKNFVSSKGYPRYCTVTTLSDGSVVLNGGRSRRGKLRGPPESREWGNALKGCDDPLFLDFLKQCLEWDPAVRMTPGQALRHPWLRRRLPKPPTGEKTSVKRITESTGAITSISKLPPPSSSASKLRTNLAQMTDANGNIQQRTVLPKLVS
# PROTOCOL TEXT: Inhibition test on activity of DYRK family, mobility shift assay (MSA), DYRK2
# Assay type: biochemical
# COND: ATP 40 μM, FITC-labeled DYRKtide peptide substrate, room temperature 1 hour
VALUE KIND: Inhibitory Activity 2 (IC50 against DYRK2)

C#CC1CNC(=O)N1c1nc2c3c(ccc2s1)OCC3 (single isomer, unassigned) [Example 13] = * *
CC#CC1CNC(=O)N1c1nc2c(ccc3ncn(C4CCOCC4)c32)s1 (racemic) = * *
CC#C[C@@H]1CNC(=O)N1c1nc2c3c(ccc2s1)OCO3 = * *

###

# TARGET SYSTEM: DYRK1B (Homo sapiens, UniProt Q9Y463)
# Construct: purchased Carna Biosciences, Inc. 04-131
# Sequence (Q9Y463 whole entry): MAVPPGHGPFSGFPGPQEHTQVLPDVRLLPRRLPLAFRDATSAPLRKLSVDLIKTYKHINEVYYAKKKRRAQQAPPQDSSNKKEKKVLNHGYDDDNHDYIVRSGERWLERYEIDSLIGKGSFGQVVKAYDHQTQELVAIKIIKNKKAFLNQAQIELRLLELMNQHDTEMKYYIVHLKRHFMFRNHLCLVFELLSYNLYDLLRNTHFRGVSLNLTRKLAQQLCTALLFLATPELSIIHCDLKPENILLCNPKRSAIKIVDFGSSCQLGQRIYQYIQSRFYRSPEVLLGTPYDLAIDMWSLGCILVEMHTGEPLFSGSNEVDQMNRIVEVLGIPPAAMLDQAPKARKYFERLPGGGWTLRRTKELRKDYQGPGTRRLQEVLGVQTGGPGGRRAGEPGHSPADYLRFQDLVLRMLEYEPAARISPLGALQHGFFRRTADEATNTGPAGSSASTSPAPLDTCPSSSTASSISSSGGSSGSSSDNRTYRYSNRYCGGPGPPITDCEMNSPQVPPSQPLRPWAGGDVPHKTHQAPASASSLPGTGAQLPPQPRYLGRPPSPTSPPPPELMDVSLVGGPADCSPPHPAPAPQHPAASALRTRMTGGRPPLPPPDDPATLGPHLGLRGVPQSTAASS
# PROTOCOL TEXT: Inhibition test on activity of DYRK family, mobility shift assay (MSA), DYRK1B
# Type: biochemical
# Design: scale not given here
# COND: ATP 200 μM, FITC-labeled DYRKtide peptide substrate, room temperature 1 hour
VALUE KIND: Inhibitory Activity 1b (IC50 against DYRK1B)

Known results for molecules:
CC#CC1CNC(=O)N1c1nc2c(ccc3ncccc32)s1 (racemic) = * * *
CC#CC1CNC(=O)N1c1nc2c(ccc3ncn(C4CCOCC4)c32)s1 (racemic) = * * *
CC#CC1CNC(=O)N1c1nc2c(ccc3nnn(C)c32)s1 (single isomer, unassigned) [Example 30] = * * *
CC#C[C@H]1CNC(=O)N1c1nc2c3c(ccc2s1)OCO3 = * *

So what's the measured Inhibitory Activity 1b (IC50 against DYRK1B) for this one? CC#CC1CNC(=O)N1c1nc2c3c(ccc2s1)OCCN3 (racemic)
* * *

So what's the measured Inhibitory Activity 1b (IC50 against DYRK1B) for this one? CC#CC1CNC(=O)N1c1nc2c3c(ccc2s1)OCCN3C (racemic)
* * *

###

# TARGET SYSTEM: DYRK1A (Homo sapiens, UniProt Q13627)
# Construct: purchased Carna Biosciences, Inc. 04-130
# PROTOCOL TEXT: Inhibition test on activity of DYRK family, mobility shift assay (MSA), DYRK1A
# Assay type: biochemical
# COND: ATP 100 μM, FITC-labeled DYRKtide peptide substrate, room temperature 1 hour
VALUE KIND: Inhibitory Activity 1a (IC50 against DYRK1A)

Known results for compounds:
CC#C[C@@H]1[C@H]([C@H](C)O)NC(=O)N1c1nc2c3c(ccc2s1)OCC3 = * * *
CC#CC1CNC(=O)N1c1nc2c3c(ccc2s1)OCCN3S(C)(=O)=O (racemic) = * *
CC#C[C@H]1[C@H](COC)NC(=O)N1c1nc2c3c(ccc2s1)OCC3 (single isomer, unassigned) [Example 77] = * *
CC#CC1CNC(=O)N1c1nc2c3c(ccc2s1)OCCN3CCOC (racemic) = * * *
CC#CC1CNC(=O)N1c1nc2c(ccc3nc[nH]c32)s1 (racemic) = ** *
CC#CC1CNC(=O)N1c1nc2c(ccc3ncn(C4CCOCC4)c32)s1 (racemic) = * * *
CC#CC1CNC(=O)N1c1nc2c(ccc3nnn(C)c32)s1 (racemic) [Example 28] = * * *

Recorded Inhibitory Activity 1a (IC50 against DYRK1A) for CC#C[C@@H]1[C@H](CO)NC(=O)N1c1nc2c3c(ccc2s1)OCCO3 (relative stereo) with DYRK1A (Homo sapiens, UniProt Q13627), please?
* * *
